Molecular target: GAT1 (Homo sapiens)
Sequence (P30531 whole entry): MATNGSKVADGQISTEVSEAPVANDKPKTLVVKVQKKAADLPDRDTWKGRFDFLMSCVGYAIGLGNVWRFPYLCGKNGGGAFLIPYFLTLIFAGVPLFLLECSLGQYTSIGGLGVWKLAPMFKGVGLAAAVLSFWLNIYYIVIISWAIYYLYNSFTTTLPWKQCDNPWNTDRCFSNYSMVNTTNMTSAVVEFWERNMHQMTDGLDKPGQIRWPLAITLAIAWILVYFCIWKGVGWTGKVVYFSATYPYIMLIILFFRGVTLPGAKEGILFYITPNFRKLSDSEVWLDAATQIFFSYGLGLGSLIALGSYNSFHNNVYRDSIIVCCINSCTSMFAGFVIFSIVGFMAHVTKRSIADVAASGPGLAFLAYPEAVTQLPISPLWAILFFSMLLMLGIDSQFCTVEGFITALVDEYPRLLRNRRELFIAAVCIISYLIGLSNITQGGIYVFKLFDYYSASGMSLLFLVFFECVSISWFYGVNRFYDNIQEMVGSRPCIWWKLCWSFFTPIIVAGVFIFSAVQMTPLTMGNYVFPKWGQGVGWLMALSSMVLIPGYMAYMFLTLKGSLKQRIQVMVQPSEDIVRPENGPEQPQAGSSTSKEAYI
assay-metric: pKi
Answers are plain numbers, as −log10 of the molar value.

Qu. Query (compound): O=C(O)C1=CCCN(CCON=C(c2ccccc2)c2ccccc2)C1 ; field requested: pKi
Ans. 7.11
